# targetOrSystem: HLA-B*5101 (human)
# measurementNotes: competition vs 125I probe peptide, purified HLA
# experimentalParameters: remark: other sources report otherwise
pIC50: −log10 of the molar value.
propertyName: pIC50

The cases that follow already have their pIC50 on record.
binder: LPQPPICTI (modifications not checked) [Her2/neu.941]
observedMeasurement: 8.38

binder: APAPAPSI [p53.84.I8]
observedMeasurement: 6.30

a = IPWQRLLLTI [CEA.13I10]
b = KPYDGIPI [Her2/neu.92118]
Input: Higher pIC50 between a and b ? Write down the label of the entry you select.
Output: a
(a: 7.72, b: 7.13)
